For each of the molecules below, state its TGI.
Test system: OVCAR-4 ovarian
Test: NCI tumour cell line growth inhibition, 48 h

Example results:
COc1cc(-c2cn(S(=O)(=O)c3ccc(C)cc3)c3ccccc23)nc(-c2cn(S(=O)(=O)c3ccc(C)cc3)c3ccccc23)n1 = > 100 µM
COc1ccc(-c2cc(-c3cc(Cl)ccc3Cl)nc3n[nH]c(N)c23)cc1 = > 100 µM

Here is the next item to consider.
Ask: State its TGI for this molecule: COc1cc2c[n+](C)c3c4cc(OC)c(OC)cc4c(OC)cc3c2cc1OC
Reply: > 69.5 µM

----------
Test system: LOX IMVI melanoma
Assay: NCI tumour cell line growth inhibition, 48 h
ASSAY_ENDPOINT: GI50

COc1cc2c(cc1O)CC[C@@H]1[C@@H]2CC[C@]2(C)[C@@H](NCCN(C)C)CC[C@@H]12 = 0.11 µM
CC12CCC3C(CCC4Cc5[nH]c6ccccc6c5CC43C)C1CCC2O (stereo not drawn) = 1.01 µM

Ask: For the compound COC(=O)CCC(=O)C(=O)OC , report GI50.
Reply: 13300 µM
